Test: in vivo
Settings: dog, iv
VALUE KIND: half-life (h)
Quick reminder: number only, in h, skip the unit.

Can you share its half-life? I mean this compound: "O=[N+]([O-])OC(CO)CO"
2.1
